# experimentDescription: Cytotoxicity against mouse RAW264.7 cells assessed as cell viability at 1 to 20 uM after 24 hrs by MTT assay relative to control
# Type: cell-based
# runConditions: read-out: Activity
Here the recorded viability at 24 h, up to 20 µM is given for each entry.
reportedProperty: viability at 24 h, up to 20 µM (%)

In [3]: df
Out[3]:
                                   compound  readingunit  testresult
0  O=C1C[C@@H](c2ccccc2)Oc2cc(O[C@@H]3O[C@H](CO)[C@@H](O)[C@H](O)[C@H]3O)cc(O)c21            %        74.5
1  O=C(/C=C/c1ccccc1)O[C@H]1[C@H](Oc2cc(O)c3c(c2)O[C@H](c2ccc(O)c(O)c2)CC3=O)O[C@H](CO)[C@@H](O)[C@@H]1O [VISARTISIDE A]            %         100
2  O=C(/C=C/c1ccccc1)OC[C@@]1(O)CO[C@@H](O[C@@H]2[C@@H](O)[C@@H](O)O[C@H](CO)[C@H]2O)[C@@H]1O [VISARTISIDE D]            %        80.2
